Listing of recorded Ratio OD(Variant)/OD(WT) by entry.
assay_target: HRgpA-6H (Porphyromonas gingivalis) (UniProt P28784)
run_description: ELISA, Fab FASEBA supernatant on coated HRgpA-6H (0.0625 ug/ml)
Returns: the value as a bare number; no unit string appended.

Return Ratio OD(Variant)/OD(WT) (reported value) for this binder: KB001 parental mouse Fab VH variant S65L (Fab, V domains shown) VH: EVQLKQSGPGLVAPSQSLSITCTVSGFSLSIYSVHWVRQPPGKGLEWLGMIWGGGSSDYNSALKLRLSISKDNSKSQVFLKMNSLQTDDTAMYYCARNGNFYAMDYWGQGTSVTVSS VL: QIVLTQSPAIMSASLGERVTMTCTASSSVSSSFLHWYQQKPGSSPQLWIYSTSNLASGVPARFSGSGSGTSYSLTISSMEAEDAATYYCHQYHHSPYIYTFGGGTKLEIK 0.88

Dear colleague, please send me the reported Ratio OD(Variant)/OD(WT) for KB001 parental mouse Fab VH variant N100R (Fab, V domains shown) VH: EVQLKQSGPGLVAPSQSLSITCTVSGFSLSIYSVHWVRQPPGKGLEWLGMIWGGGSSDYNSALKSRLSISKDNSKSQVFLKMNSLQTDDTAMYYCARNGRFYAMDYWGQGTSVTVSS VL: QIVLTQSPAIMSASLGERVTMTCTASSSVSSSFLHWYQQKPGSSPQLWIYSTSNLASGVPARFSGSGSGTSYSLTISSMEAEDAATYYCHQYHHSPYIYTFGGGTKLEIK when you can. 0.93

Please report Ratio OD(Variant)/OD(WT) for the following binder: KB001 parental mouse Fab VH variant K64E (Fab, V domains shown) VH: EVQLKQSGPGLVAPSQSLSITCTVSGFSLSIYSVHWVRQPPGKGLEWLGMIWGGGSSDYNSALESRLSISKDNSKSQVFLKMNSLQTDDTAMYYCARNGNFYAMDYWGQGTSVTVSS VL: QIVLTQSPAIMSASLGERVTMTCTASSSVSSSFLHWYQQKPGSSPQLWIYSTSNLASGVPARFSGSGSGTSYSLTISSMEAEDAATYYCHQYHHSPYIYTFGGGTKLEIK 0.954

Identify Ratio OD(Variant)/OD(WT) associated with the binder KB001 parental mouse Fab VH variant N100F (Fab, V domains shown) VH: EVQLKQSGPGLVAPSQSLSITCTVSGFSLSIYSVHWVRQPPGKGLEWLGMIWGGGSSDYNSALKSRLSISKDNSKSQVFLKMNSLQTDDTAMYYCARNGFFYAMDYWGQGTSVTVSS VL: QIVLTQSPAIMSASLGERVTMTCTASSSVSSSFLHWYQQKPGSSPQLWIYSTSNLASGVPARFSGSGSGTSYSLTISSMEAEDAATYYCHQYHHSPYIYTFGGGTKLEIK 0.92

Give reported Ratio OD(Variant)/OD(WT) value for KB001 parental mouse Fab VH variant K64D (Fab, V domains shown) VH: EVQLKQSGPGLVAPSQSLSITCTVSGFSLSIYSVHWVRQPPGKGLEWLGMIWGGGSSDYNSALDSRLSISKDNSKSQVFLKMNSLQTDDTAMYYCARNGNFYAMDYWGQGTSVTVSS VL: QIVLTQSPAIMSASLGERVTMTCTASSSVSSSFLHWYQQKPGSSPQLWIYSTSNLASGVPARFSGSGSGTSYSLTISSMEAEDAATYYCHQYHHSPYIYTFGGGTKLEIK 0.944
